src = patent EP0445156B1

assay: Solubility; assay type: physicochemical; details: water, in Wasser bei 25°C; read-out: Löslichkeit
readout: solubility (mg/mL)
One number for each entry, in mg/mL.

// field: solubility; key: O=c1[nH]c(=O)c2cn[nH]c2[nH]1 [Oxipurinol-Natrium, Mono-Natriumoxipurinol-Monohydrat] ; value = 15.8

====

Experiment: Solubility
Type: physicochemical
Details: methanol/water (3:1 vol.), organic solvent or mixture, in Methanol/Wasser (3:1 Vol.) bei 25°C; read-out: Löslichkeit
Method: Bei diesem Natrium-Salz handelt es sich um Mono-Natriumoxipurinol-Monohydrat. Das Salz ist weiß und kristallisiert in feinen Nadeln. In wäßriger Lösung reagiert es alkalisch, eine 5%ige Lösung besitzt einen pH-Wert von 9,7. Seine Löslichkeit beträgt: in Wasser bei 25°C 15,8 g/l 0°C 7,2 g/l in Methanol/Wasser (3:1 Vol.) bei 25°C ca. 2,0 g/l
readout: solubility

Looking up O=c1[nH]c(=O)c2cn[nH]c2[nH]1 [Oxipurinol-Natrium, Mono-Natriumoxipurinol-Monohydrat] , I found its solubility recorded as ~2000 µg/mL
